- system_name: the molecule itself
- assay: AUC + other: circular dichroism
pKd: −log10 of the molar value.
measurement_name: pKd

protein: TRSDSNQSSSDLVAAVTLALKNLGFDNQSKSPSSSGT (also called human coronavirus NL63) [NL63 nucleocapsid LRS peptide 174-210]
measurement_name: pKd
result: 3.85
//
protein: RQPASTVKPDMAEEIAALVLAKLGKDAGQPKQV (also called murine hepatitis virus) [MHV nucleocapsid LRS peptide 223-255]
measurement_name: pKd
result: 3.10
//
protein: MASGGGETALALLLLDRLNQLESKVSGKGQQQ [SARS-CoV-1 nucleocapsid LRS peptide 211-242]
measurement_name: pKd
result: 3.30
//
protein: 229E-related bat coronavirus nucleocapsid LRS peptide 170-221 (peptide) peptide: NERLPKSNSKQSNQDDIMAAVAAALEKLGFERPNDASQPQKKQNKGTPKPSR
measurement_name: pKd
result: 3.54
